target: BK virus VP1 protein, genotype III (BK virus); test: cell-based or functional assay
measurement-label: EC50, pseudovirus neutralization (mAb mixed with irrelevant isotype matched mAb M2)

binder | observed-measurement
6E1 (antibody, V domains shown) VH: EVQLLESGGGLVQPGGSLRLSCAASGFTFSSFAMSWVRQAPGKGLEWVSGISGSGGSTYYADSVKGRFTISRDNSKNTLYLQMNSLRAEDTAIYYCAKDKRNWNYGIDSFDFWGQGTMVTVSS VL: DIQMTQSPSSLSASVGGRVTITCRTSQSISGYLNWYQQKAGKAPKLLIYATSNLQSGVPSRFTGSGSGTDFTLTISSLQPEDFAAYYCHQSHSPPFTFGPGTKVAFK | > 2 nM

This collection of values is drawn from patent US20250304658A1.
